All figures here come from PubChem BioAssay AID1159580.

assay: chemical genetic growth profiling, strain panel (AID 1159580);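 also: tested at 20 µM; growth read once vehicle control cultures reached saturation at 30 °C; 1 = growth at the plate median or of vehicle wells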; settings: S. cerevisiae deletion strains, growth OD, locus YML094W, strain GIM5, stronger effect = lower value
Among all 5,500 compounds or so, about 2,000 (36%) were called active. Roughly 18% stayed inconclusive and do not appear here. Some of the results follow.
API: label(entry) gives TRUE if the entry's normalized growth is strictly smaller than 1; on equality or larger values it gives FALSE.

Please let me know if Cc1cccc(Cn2c(C)c(C)c(S(=O)(=O)c3ccccc3)c2N)c1C shows normalized growth below 1. FALSE

====

test: chemical genetic growth profiling, strain panel (AID 1159580); conditions: S. cerevisiae deletion strains, growth OD, locus YDR001C, strain nth1, stronger effect = lower value
The campaign covered roughly 5,500 compounds. About 2,000 (36%) were called active. Inconclusive results (about 18%) are left out. Some of the results follow.
Just a reminder that ties go to Condition not met: only normalized growth strictly below 1 counts as Condition met.

Some solved cases for reference:
- compound: "CCCCCCCCCCCCCCCC[N+](C)(C)C"
  label: "Condition met"
- compound: "CCC(=O)O[C@H]1CCC2C3CCC4=CC(=O)CC[C@]4(C)C3CC[C@@]21C (stereo not given in full)"
  label: "Condition met"

With those in mind, consider the next compound.
Could you please tell me whether normalized growth recorded for CCN(CC)CCCC(C)Nc1c2ccc(Cl)cc2nc2ccc(OC)cc12 (stereo not given) is less than 1? Condition not met

====

assay: chemical genetic growth profiling, strain panel (AID 1159580); details: S. cerevisiae deletion strains, growth OD, locus YEL003W, strain gim4, stronger effect = lower value
The campaign covered roughly 5,500 compounds. About 2,000 (36%) were called active. Not shown: some 18% with an inconclusive outcome. The list shows a part of the results.
quantity-measured: normalized growth

- compound: "COc1ccc2c(c1)OCc1c-2oc2cc(OC)ccc12"
  normalized growth: "0.806 (active)"
- compound: "CC(Oc1ccccc1)C(=O)N[C@@H]1C(=O)N2[C@@H]1SC(C)(C)[C@@H]2C(=O)O (stereo not given in full)"
  normalized growth: "0.993 (inactive)"
- compound: "c1ccc(N=Nc2ccccc2)cc1"
  normalized growth: "0.996 (inactive)"

Look at each compound and report its normalized growth.
1. COc1ccc2c(C)cc(=O)oc2c1
2. CO[C@H]1[C@H](O)[C@H](O[C@H]2CC[C@]3(C)C4CC[C@]5(C)C(C6=CC(=O)OC6)CC[C@]5(O)C4CC[C@@H]3C2)O[C@@H](C)[C@@H]1O (stereo not given in full)
3. CS(=O)(=O)c1ccc(C2=C(c3ccccc3)C(=O)OC2)cc1
4. CC(=O)OCC(=O)[C@H]1CCC2C3CCC4=CC(=O)CC[C@]4(C)C3CC[C@@]21C (stereo not given in full)
5. CCOC(=O)C(=O)C1(C(=O)OCC)Oc2cc(OC)cc(OC)c2C(=O)C1c1ccccc1 (stereo not given)
6. CCOC(=O)C(Cc1ccc(O)cc1)NC(C)=O (stereo not given)
7. COc1cc2c(cc1OC)Cc1cc(OC)c(OC)cc1Cc1cc(OC)c(OC)cc1C2

1. 0.982 (inactive)
2. 1.02 (inactive)
3. 0.977 (inactive)
4. 0.994 (inactive)
5. 0.948 (inactive)
6. 1.01 (inactive)
7. 1.04 (inactive)

====

Consider the following compounds; for each one, report its normalized growth.
assay: chemical genetic growth profiling, strain panel (AID 1159580);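 also: tested at 20 µM; growth read once vehicle control cultures reached saturation at 30 °C; 1 = growth at the plate median or of vehicle wells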; settings: S. cerevisiae deletion strains, growth OD, locus YKL068W, stronger effect = lower value
About 2,000 (36%) of roughly 5,500 compounds were called active. Inconclusive results (about 18%) are left out. The list shows a part of the results.
Numbers only.

// worked examples, normalized growth included
- compound: "CCN(CC)CCCC(C)Nc1c2ccc(Cl)cc2nc2ccc(OC)cc12 (stereo unspecified)"
  normalized growth: 1
- compound: "CC1CC2C3CCC4=CC(=O)C=C[C@]4(C)[C@@]3(F)[C@@H](O)C[C@]2(C)[C@@]1(O)C(=O)CO (stereo partly specified)"
  normalized growth: 0.987
- compound: "CCN(CC)CCCC(C)Nc1ccnc2cc(Cl)ccc12 (stereo unspecified)"
  normalized growth: 1.01
- compound: "CC(=O)NC1SCCC1=O (stereo unspecified)"
  normalized growth: 1
- compound: "CCN(CCO)CCCC(C)Nc1ccnc2cc(Cl)ccc12 (stereo unspecified)"
  normalized growth: 0.998

Consider the compound shown here: COCCc1ccc(OCC(O)CNC(C)C)cc1 (stereo unspecified) What is its recorded normalized growth? 1.01

====

experiment: chemical genetic growth profiling, strain panel (AID 1159580);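 also: tested at 20 µM; growth read once vehicle control cultures reached saturation at 30 °C; 1 = growth at the plate median or of vehicle wells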; details: S. cerevisiae deletion strains, growth OD, locus YMR231W, strain pep5, stronger effect = lower value
In all, about 5,500 compounds went through this assay and about 2,000 (36%) were called active. Inconclusive results (about 18%) are left out. The list shows a part of the results.
Please go through the items and note down their normalized growth.
Numbers only.

Study these solved cases before continuing.
- compound: "S=c1nc[nH]c2nc[nH]c12"
  normalized growth: 1.02
- compound: "ClC1=C(Cl)C2(Cl)C3C4C=CC(C4)C3C1(Cl)C2(Cl)Cl (stereo not drawn)"
  normalized growth: 0.982
- compound: "O=C(O)c1cc2ccccc2[nH]1"
  normalized growth: 1
- compound: "CC1(C)OC(=O)NC1=O"
  normalized growth: 1.01
- compound: "CC(=O)O[C@@H]1C[C@@]2(C)C(CC[C@@H]2C(C)=O)C2CCC3=CC(=O)CC[C@]3(C)C21 (stereo partly drawn)"
  normalized growth: 1.02

Go through the list and state normalized growth for each entry.
1. CN1CCc2cc3c(cc2[C@H]1C1OC(=O)c2c1ccc1c2OCO1)OCO3 (stereo partly drawn)
2. CN(C)c1ccc(C(=C2C=CC(=[N+](C)C)C=C2)c2ccc(N(C)C)cc2)cc1
3. CO[C@H]1[C@H](O)[C@H](O[C@H]2CC[C@]3(C)C4CC[C@]5(C)C(C6=CC(=O)OC6)CC[C@]5(O)C4CC[C@@H]3C2)O[C@@H](C)[C@@H]1O (stereo partly drawn)
4. CN(C)CC/C=C1\c2ccccc2Sc2ccc(Cl)cc21

[0.987, 0.558, 1, 0.0779]

Each compound below has a recorded value; state its normalized growth.
1. CCCCNc1cc(C(=O)O)cc(S(N)(=O)=O)c1Oc1ccccc1
2. CC(N)CCCC(C)(C)O (stereo not drawn)
3. C[C@]12CCC(=O)C=C1CCC1C2CC[C@@]2(C)C1CC[C@@H]2O (stereo partly drawn)

1: 1.01; 2: 0.983; 3: 0.999

I need normalized growth for every entry listed below, if you could help.
1. CC(=O)NC1SCCC1=O (stereo not drawn)
2. O=C(O)c1cc2ccccc2c(Cc2c(O)c(C(=O)O)cc3ccccc23)c1O
3. NCC1CCC(C(=O)O)CC1 (stereo not drawn)
4. CCC(=O)O[C@H]1CCC2C3CCC4=CC(=O)CC[C@]4(C)C3CC[C@@]21C (stereo partly drawn)

1: 0.976; 2: 1; 3: 0.999; 4: 0.957

The following compounds each have a reported value; give each one's normalized growth.
1. CC(C)(O)[C@@H]1[C@H]2OC(=O)[C@@H]1[C@]1(O)C[C@H]3O[C@]34C(=O)O[C@H]2[C@]14C
2. ClC1=C(Cl)C2(Cl)C3C(Cl)C=CC3C1(Cl)C2(Cl)Cl (stereo not drawn)
3. CC(=O)N[C@@H](CC(C)C)C(=O)O
4. COc1ccc2c(c1)OCc1c-2oc2cc(OC)ccc12

[1, 0.987, 0.991, 0.912]

Value sought for every listed compound: normalized growth.
1. CC(=O)[C@H]1CCC2C3CCC4=CC(=O)CC[C@]4(C)C3CC[C@@]21C (stereo partly drawn)
2. O=C(O)c1c2ccccc2cc2ccccc12
3. OCC(O)C(O)C(O)CO (stereo not drawn)

1. 0.96
2. 0.979
3. 1.01

====

assay: chemical genetic growth profiling, strain panel (AID 1159580);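 also: tested at 20 µM; growth read once vehicle control cultures reached saturation at 30 °C; 1 = growth at the plate median or of vehicle wells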; conditions: S. cerevisiae deletion strains, growth OD, locus YDR159W, strain sac3, stronger effect = lower value
Among all 5,500 compounds or so, about 2,000 (36%) were called active. About 18% were inconclusive and are not listed. Some of the results follow.
Would you kindly list normalized growth for each of these compounds?

As a guide, the following entries are already answered.
- compound: "COc1ccc2c(c1)OCc1c-2oc2cc(OC)ccc12"
  normalized growth: "0.724 (active)"
- compound: "CCOC(=O)CCC(=O)O[C@H]1[C@H](O[C@@H]2[C@@H](C)[C@H](O[C@H]3C[C@@](C)(OC)[C@@H](O)[C@H](C)O3)[C@@H](C)C(=O)O[C@H](CC)[C@@](C)(O)[C@H](O)[C@@H](C)C(=O)[C@H](C)C[C@@]2(C)O)O[C@H](C)C[C@@H]1N(C)C"
  normalized growth: "0.979 (inactive)"
- compound: "CN(C)C(=S)SSC(=S)N(C)C"
  normalized growth: "0.0951 (active)"

Respectfully, I request normalized growth for each entry included below.
1. CC(C(=O)O)c1ccc(-c2ccccc2)c(F)c1 (stereo unspecified)
2. CC(C(=O)O)c1cccc(C(=O)c2ccccc2)c1 (stereo unspecified)

0.913 (inactive)
0.928 (inactive)
